# assay-target: Full-length, GST-tagged, human CaMKIIδ (Homo sapiens)
# Construct: Full-Length, Glutathione-S-Transferase(GST)-Tagged, Human CaMKIIδ was purchased from Carna Biosciences; purchased Carna Biosciences 02-111
# assay-summary: CaMKIIδ binding assay (TR-FRET with BODIPY-labeled probe ligand)
# setup-conditions: Table 2; CaMKIIδ binding assay, activity given as class A/B/C
# Description: In vitro CaMKIIδ inhibitory activity was evaluated by a binding assay. Full-Length, Glutathione-S-Transferase(GST)-Tagged, Human CaMKIIδ was purchased from Carna Biosciences (product #02-111, Kobe, Japan). Full-length bovine calmodulin was purchased from Wako Pure Chemical Industries (Osaka, Japan). […] Time-Resolved Fluorescence Resonance Energy Transfer (TR-FRET) Assay […] The percentage of inhibition of test compounds was calculated according to equation (1) Inhibition (%)=100×([…]−T)/(μH−μL) (1) […]
pIC50: −log10 of the molar value.
Entries and their measured pIC50 follow.

compound	pIC50
C[C@@H](Cn1cnnn1)Oc1cc(-c2cnc(Nc3cn([C@H]4CC[C@@H](N5CCOCC5)CC4)nc3C(F)(F)F)nc2)ccc1Cl	> 8.00
Cc1ccc(-c2cnc(Nc3cn([C@H]4CC[C@H](N5CCOCC5)CC4)nc3C(F)(F)F)nc2)cc1O[C@@H](C)Cn1cnnn1	> 8.00
CC(=O)NCCn1cc(Nc2ncc(-c3ccc(Cl)c(O[C@@H](C)Cn4cnnn4)c3)cn2)c(C(F)(F)F)n1	7.00 to 8.00
C[C@@H](Cn1cccn1)Oc1cc(-c2cnc(Nc3cn([C@H]4CC[C@@H](N5CCOCC5)CC4)nc3C(F)(F)F)nc2)ccc1C#N	7.00 to 8.00
C[C@@H](Cn1cnnn1)Oc1cc(-c2cnc(Nc3cn(C4CCCCNC4=O)nc3OCC(F)(F)F)nc2)ccc1Cl (stereo partly drawn)	> 8.00
C[C@@H](Cn1cnnn1)Oc1cc(-c2cnc(Nc3cn([C@H]4CC[C@@H](N5CC6(COC6)C5)CC4)nc3C(F)(F)F)nc2)ccc1Cl	> 8.00

----------
Entries and their measured IC50 follow.
# assay-target: Full-length, GST-tagged, human CaMKIIδ (Homo sapiens, UniProt Q13557)
# Construct: Full-Length, Glutathione-S-Transferase(GST)-Tagged, Human CaMKIIδ was purchased from Carna Biosciences; purchased Carna Biosciences 02-111
# Sequence (Q13557 1-478 isoform Q13557-12): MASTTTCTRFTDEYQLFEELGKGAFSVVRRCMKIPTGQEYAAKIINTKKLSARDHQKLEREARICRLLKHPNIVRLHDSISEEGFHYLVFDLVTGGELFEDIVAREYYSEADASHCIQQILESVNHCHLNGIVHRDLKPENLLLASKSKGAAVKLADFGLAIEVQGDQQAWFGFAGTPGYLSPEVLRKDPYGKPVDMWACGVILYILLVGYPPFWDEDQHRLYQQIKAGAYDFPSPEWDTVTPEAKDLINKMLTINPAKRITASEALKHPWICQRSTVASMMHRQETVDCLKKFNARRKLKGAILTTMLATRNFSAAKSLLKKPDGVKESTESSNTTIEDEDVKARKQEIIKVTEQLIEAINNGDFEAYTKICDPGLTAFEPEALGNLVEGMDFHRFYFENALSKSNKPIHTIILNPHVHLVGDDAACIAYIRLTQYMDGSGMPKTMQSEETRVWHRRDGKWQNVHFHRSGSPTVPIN
# assay-summary: CaMKIIδ binding assay (TR-FRET with BODIPY-labeled probe ligand)
# setup-conditions: Table 2; CaMKIIδ binding assay, activity given as class A/B/C

compound	assay-target	IC50
CC(C)c1nn(C2CCC(=O)CC2)cc1Nc1ncc(-c2ccc(Cl)c(O[C@@H](C)Cn3cnnn3)c2)cn1 [Example 841]	Full-length, GST-tagged, human CaMKIIδ (Homo sapiens, UniProt Q13557)	< 10 nM
Cc1ccc(-c2cnc(Nc3cn([C@H]4CC[C@@H](N5CCOCC5)CC4)nc3OCC(F)(F)F)nc2)cc1O[C@@H](C)Cn1cnnn1 [Example 812]	Full-length, GST-tagged, human CaMKIIδ (Homo sapiens, UniProt Q13557)	< 10 nM
C[C@@H](Cn1cnnn1)Oc1cc(-c2cnc(Nc3cn([C@H]4CC[C@H](N5CC6(COC6)C5)CC4)nc3C(F)(F)F)nc2)ccc1Cl [Example 822]	Full-length, GST-tagged, human CaMKIIδ (Homo sapiens, UniProt Q13557)	< 10 nM
C[C@@H](Cn1cnnn1)Oc1cc(-c2cnc(Nc3cn([C@H]4CC[C@@H](N5CCC5)CC4)nc3C(F)(F)F)nc2)ccc1Cl [Example 778]	Full-length, GST-tagged, human CaMKIIδ (Homo sapiens, UniProt Q13557)	< 10 nM
C[C@@H](Cn1cnnn1)Oc1cc(-c2cnc(Nc3cn([C@H]4CC[C@H](N5CCOCC5)CC4)nc3OCC(F)F)nc2)ccc1Cl [Example 806]	Full-length, GST-tagged, human CaMKIIδ (Homo sapiens, UniProt Q13557)	< 10 nM
C[C@@H](Cn1cnnn1)Oc1cc(-c2cnc(Nc3cn(CC(F)F)nc3C(F)(F)F)nc2)ccc1Cl [Example 743]	Full-length, GST-tagged, human CaMKIIδ (Homo sapiens, UniProt Q13557)	10 to 100 nM
C[C@@H](Cn1cnnn1)Oc1cc(-c2cnc(Nc3cn(C4CCN(C5CCOCC5)CC4)nc3OCCF)nc2)ccc1Cl [Example 825]	Full-length, GST-tagged, human CaMKIIδ (Homo sapiens, UniProt Q13557)	< 10 nM
C[C@@H](Cn1cnnn1)Oc1cc(-c2cnc(Nc3cn([C@H]4CC[C@H](N5CC6(COC6)C5)CC4)nc3OCC(F)F)nc2)ccc1Cl [Example 827]	Full-length, GST-tagged, human CaMKIIδ (Homo sapiens, UniProt Q13557)	< 10 nM
C[C@@H](Cn1cnnn1)Oc1cc(-c2cnc(Nc3cn([C@H]4CC[C@@H](N5CCC5)CC4)nc3C(F)(F)F)nc2)ccc1C#N [Example 773]	Full-length, GST-tagged, human CaMKIIδ (Homo sapiens, UniProt Q13557)	< 10 nM
C[C@@H](Cn1cnnn1)Oc1cc(-c2cnc(Nc3cc(N4CC(CN5CCOCC5)C4)ccc3F)nc2)ccc1C#N [Example 762]	Full-length, GST-tagged, human CaMKIIδ (Homo sapiens, UniProt Q13557)	< 10 nM
C[C@@H](Cn1cnnn1)Oc1cc(-c2cnc(Nc3cn(CC(F)F)nc3OCC(F)(F)F)nc2)ccc1Cl [Example 760]	Full-length, GST-tagged, human CaMKIIδ (Homo sapiens, UniProt Q13557)	< 10 nM
C[C@@H](Cn1cnnn1)Oc1cc(-c2cnc(Nc3sc4c(c3C#N)CCCC4)nc2)ccc1Cl [Example 752]	Full-length, GST-tagged, human CaMKIIδ (Homo sapiens, UniProt Q13557)	10 to 100 nM
C[C@@H](Cn1cnnn1)Oc1cc(-c2cnc(Nc3cn([C@H]4CC[C@H](N5CCOCC5)CC4)nc3OC3COC3)nc2)ccc1Cl [Example 821]	Full-length, GST-tagged, human CaMKIIδ (Homo sapiens, UniProt Q13557)	< 10 nM

----------
Entries and their measured pIC50 follow.
# assay-target: Full-length, GST-tagged, human CaMKIIδ (Homo sapiens)
# Construct: Full-Length, Glutathione-S-Transferase(GST)-Tagged, Human CaMKIIδ was purchased from Carna Biosciences; purchased Carna Biosciences 02-111
# assay-summary: CaMKIIδ binding assay (TR-FRET with BODIPY-labeled probe ligand)
# setup-conditions: CaMKIIδ binding assay; activity class per Table 2
pIC50: −log10 of the molar value.

compound	pIC50
C[C@@H](Cn1cnnn1)Oc1cc(-c2cnc(Nc3cn(CC4(O)CCNCC4)nc3C(F)(F)F)nc2)ccc1Cl	> 8.00
C[C@@H](Cn1cnnn1)Oc1cc(-c2cnc(Nc3cn(CCNS(C)(=O)=O)nc3C(F)(F)F)nc2)ccc1Cl	7.00 to 8.00
C[C@H](Cn1cnnn1)Oc1cc(-c2cnc(Nc3cn([C@H]4CC[C@@H](N5CCOCC5)CC4)nc3C(F)(F)F)nc2)ccc1Cl	≤ 7.00
C[C@@H](Cn1cnnn1)Oc1cc(-c2cnc(Nc3cn(C4CC5(C4)CN(C4CCOC4)C5)nc3C(F)(F)F)nc2)ccc1Cl (stereo partly shown)	> 8.00
COc1ccc(-n2cc(Nc3ncc(-c4ccc(Cl)c(O[C@@H](C)Cn5cnnn5)c4)cn3)c(OCC(F)(F)F)n2)cn1	7.00 to 8.00
C[C@@H](Cn1cnnn1)Oc1cc(-c2cnc(Nc3cn(C4CC5(C4)CN(c4ccccn4)C5)nc3OCC(F)(F)F)nc2)ccc1Cl	> 8.00
CCC1(N2CC3(CC(n4cc(Nc5ncc(-c6ccc(Cl)c(O[C@@H](C)Cn7cnnn7)c6)cn5)c(C(C)C)n4)C3)C2)CCOCC1	> 8.00
CC(=O)OC(C)(C)CN1CC2(CC(n3cc(Nc4ncc(-c5ccc(Cl)c(O[C@@H](C)Cn6cnnn6)c5)cn4)c(OCC(F)(F)F)n3)C2)C1	> 8.00
CC(C)c1nn(C2CC3(C2)CN(CC(C)(C)O)C3)cc1Nc1ncc(-c2ccc(Cl)c(O[C@@H](C)Cn3cnnn3)c2)cn1	> 8.00
C[C@@H](Cn1cnnn1)Oc1cc(-c2cnc(Nc3cn(CC4(O)CCN(C5CCC5)CC4)nc3OCC(F)(F)F)nc2)ccc1Cl	> 8.00
C[C@@H](COC(F)F)Oc1cc(-c2cnc(Nc3cn(C4CC5(C4)CN(C4CCOCC4)C5)nc3OCC(F)(F)F)nc2)ccc1C#N	> 8.00
C[C@@H](Cn1cnnn1)Oc1cc(-c2cnc(Nc3cn(Cc4cccc(=O)[nH]4)nc3OCC(F)(F)F)nc2)ccc1Cl	> 8.00
C[C@@H](Cn1cnnn1)Oc1cc(-c2cnc(Nc3cn([C@@H]4CCN(C5CCOCC5)C[C@H]4O)nc3C(F)(F)F)nc2)ccc1Cl (mixture of isomers)	> 8.00

----------
# assay-target: Full-length, GST-tagged, human CaMKIIδ (Homo sapiens, UniProt Q13557)
# Construct: Full-Length, Glutathione-S-Transferase(GST)-Tagged, Human CaMKIIδ was purchased from Carna Biosciences; purchased Carna Biosciences 02-111
# assay-summary: CaMKIIδ binding assay (TR-FRET with BODIPY-labeled probe ligand)
# setup-conditions: Table 2; activity class for CaMKIIδ
pIC50: −log10 of the molar value.
measurement-label: pIC50

molecule	test-result
COc1cc(N2CCNC[C@@H]2C)ccc1Nc1ncc(-c2ccc(Cl)c(O[C@@H](C)Cn3cnnn3)c2)cn1 [Example 649]	> 8.00
C[C@@H](Cn1cnnn1)Oc1cc(-c2cnc(Nc3ccn(Cc4ccccc4)n3)nc2)ccc1Cl [Example 714]	7.00 to 8.00
COc1nc(N2CCN(C3CCC(F)(F)CC3)CC2)ccc1Nc1ncc(-c2ccc(Cl)c(O[C@@H](C)Cn3cnnn3)c2)cn1 [Example 636]	7.00 to 8.00
C[C@@H](Cn1cnnn1)Oc1cc(-c2cnc(Nc3cn([C@@H]4C[C@H]5CC[C@@H](C4)N5C(=O)OC(C)(C)C)nc3C(F)(F)F)nc2)ccc1Cl [Example 701]	≤ 7.00
C[C@@H](Cn1cnnn1)Oc1cc(-c2cnc(Nc3cc(-c4cccs4)nn3C)nc2)ccc1Cl [Example 729]	7.00 to 8.00
C[C@@H](Cn1cnnn1)Oc1cc(-c2cnc(Nc3cn(CC(O)C(F)(F)F)nc3C(F)(F)F)nc2)ccc1Cl (stereo partly shown) [Example 728]	7.00 to 8.00
C[C@@H](Cn1cnnn1)Oc1cc(-c2cnc(Nc3cn(C4CCOC4)nc3C(F)(F)F)nc2)ccc1Cl (stereo partly shown) [Example 644]	7.00 to 8.00
